Assay: Quantitative High-Throughput drug screen in 47 multiple myeloma cell lines against the NCATS MIPE library collection: KMS11_JCRBsus cell viability assay (AID 1919873); note: nearly all actives have a fitted effect of over 50% in size
Conditions: KMS11 myeloma viability, CellTiter-Glo ATP luminescence, 48 h; series mostly up to 45.8 µM
Inconclusive results are not listed. The source made the active and inactive calls. Calls come from the whole dose curve; as a rule, active = well fitted cell-killing curve with a large enough effect; inconclusive = small, poorly fitted or top-dose-only effect, or effect the other way; inactive = no such curve, though single readings can be large or run the other way.
Hi there, use one of these labels in your reply, thanks! active, inactive

Previously resolved entries follow.
- c1cc(-c2sc(-c3ccncc3)c(-c3ccncc3)c2-c2ccncc2)ccn1: inactive
- COc1ccc(-c2coc3cc(O)cc(O)c3c2=O)cc1: inactive
- COc1ccc(-c2oc3c(CC=C(C)C)c(OC4O[C@H](CO)[C@@H](O)[C@H](O)[C@@H]4O)cc(O)c3c(=O)c2OC2O[C@@H](C)[C@H](O)[C@@H](O)[C@@H]2O)cc1 (some centres undefined): active
- O=C(Nc1ccccc1-c1cn2c(CN3CCNCC3)csc2n1)c1cnc2ccccc2n1: active
- Clc1ccc(C(c2ccc(Cl)cc2)n2cc[n+](CC(OCc3ccc(Cl)cc3Cl)c3ccc(Cl)cc3Cl)c2)cc1 (centres undefined): active
- Cc1ccc(Nc2cc(-c3cccc(N4C(=O)c5ccccc5C4=O)c3)ncn2)cc1NS(C)(=O)=O: active
- CC(=Cc1ccccc1)C=C1SC(=S)N(CC(=O)O)C1=O: inactive
- CO[C@H]1C=CC=C(C)C(=O)NC2=CC(=O)C(NCCN(C)C)=C(C[C@@H](C)C[C@H](OC)[C@@H](O)[C@@H](C)C=C(C)[C@@H]1OC(N)=O)C2=O: active

-- ask For `Cc1[nH]c(C=C2C(=O)Nc3ccc(S(=O)(=O)Cc4c(Cl)cccc4Cl)cc32)c(C)c1C(=O)N1CCC[C@H]1CN1CCCC1` , which call appears in the assay record?
-- reply active

-- ask Hello, I am checking results. What call was entered for `O=c1[nH]cnc2c1ncn2[C@H]1CC[C@@H](CO)O1` ?
-- reply inactive

-- ask Fill in: this test's call for `COc1ccc(-c2cc(=O)c3c(O)cc(O)cc3o2)cc1O` is ___
-- reply active

-- ask Recorded test outcome, item `O=C(N[C@@H](c1ccccc1)[C@@H]1CCCCN1)c1cccc(C(F)(F)F)c1Cl`
-- reply inactive

-- ask Identify the outcome logged in this assay for the compound shown: C[C@]12CCC3c4ccc(O)cc4CCC3C1CCC2=O (some centres undefined)
-- reply active

-- ask Please let me know the test result on file for C=C1C(=O)OC2C=C(C)CCC=C(C)CCC12 (centres undefined) .
-- reply active

-- ask Which outcome did this test record for the compound `Nc1ncnc2c1ncn2[C@@H]1O[C@H](CO)C[C@@H]1O` ?
-- reply active

-- ask # lookup: test call for `CCC(=O)O[C@]1(C(=O)CO)CC[C@H]2[C@@H]3CCC4=CC(=O)CC[C@]4(C)[C@@H]3CC[C@@]21C`
-- reply active

-- ask Which outcome did this test record for the compound `Nc1ncnc2c1ncn2[C@@H]1O[C@@H](CO)[C@H](O)[C@H]1O` ?
-- reply inactive

-- ask Dear colleague, could you share the recorded outcome for `COc1cc2ncnc(-n3nc(-c4ccccn4)nc3N)c2cc1OC` when you have a moment?
-- reply inactive

-- ask # fetch the recorded call for `COc1cc2nc(-c3ccc(N4CCN(C)CC4)cc3)nc(NCCN3CCOCC3)c2cc1OC` here
-- reply active
